- target: human IL-12RB2 with C-terminal HA tag, transiently expressed on HEK-293T cells (human) (UniProt Q99665)
- Sequence (Q99665 24-862): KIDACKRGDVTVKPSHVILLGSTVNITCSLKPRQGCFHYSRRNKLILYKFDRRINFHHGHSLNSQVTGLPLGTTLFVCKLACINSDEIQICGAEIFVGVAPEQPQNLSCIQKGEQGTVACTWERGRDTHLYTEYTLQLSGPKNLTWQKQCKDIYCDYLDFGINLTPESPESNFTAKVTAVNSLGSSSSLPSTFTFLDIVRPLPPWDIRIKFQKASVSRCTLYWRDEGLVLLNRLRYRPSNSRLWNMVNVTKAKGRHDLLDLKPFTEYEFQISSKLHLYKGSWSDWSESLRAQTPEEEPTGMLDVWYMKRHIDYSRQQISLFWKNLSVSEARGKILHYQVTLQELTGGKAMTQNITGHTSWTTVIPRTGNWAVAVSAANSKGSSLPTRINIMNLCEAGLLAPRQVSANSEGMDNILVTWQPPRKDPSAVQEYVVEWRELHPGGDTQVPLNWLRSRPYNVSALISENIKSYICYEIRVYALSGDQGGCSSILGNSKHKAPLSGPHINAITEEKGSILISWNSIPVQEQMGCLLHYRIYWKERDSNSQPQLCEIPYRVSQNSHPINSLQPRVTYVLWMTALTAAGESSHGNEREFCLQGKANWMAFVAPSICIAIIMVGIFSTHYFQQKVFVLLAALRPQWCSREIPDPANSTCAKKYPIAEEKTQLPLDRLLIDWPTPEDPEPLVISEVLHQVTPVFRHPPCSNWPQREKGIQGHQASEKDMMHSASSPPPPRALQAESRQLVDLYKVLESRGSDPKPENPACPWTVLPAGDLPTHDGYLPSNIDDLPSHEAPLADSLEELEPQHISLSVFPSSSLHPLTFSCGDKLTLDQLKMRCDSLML
- protocol description: FACS, periplasmic extract, HEK-293T
readout kind: FOB

Which measured FOB value corresponds to VHH93B2 (VHH) VHH: QVQLVESGGGLVQPGGSLRLSCAASGFTFEPYDMSWFRQAPGKGPEWVSAIDKGGGAGATYYADSVKGRFTISRDNAKKTLYLQMKSLKPEDTAVYYCAITAGPYSDSTPRVAYRGEGTQVTVSS ? 1.98 fold
